B1: PKD2L1 (parent)
chain: SGPEAARAGGWVSGEEFYMLTRRV

Variants of: B1
Protocol Notes: protein stability index of a GFP-peptide fusion (GPS, HEK-293T) (PSI 1-6); higher = more stable;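 note: lentivirally expressed fusions sorted by FACS into six bins by GFP to DsRed ratio, PSI derived from sequencing read proportions per bin multiplied by bin number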
Assay Conditions: c terminus: a fixed tail appended
The reader will find reported protein stability index values listed item by item below.
Write the value as a bare number.

// worked examples, protein stability index included
P3F 1.83
A6S 3.01

Then there is this variant:
Q: Reported protein stability index for `R7K` : what is it?
Result: 2.72

src = the supplement of paper PMC10567573
